systemName: Oct1 (Rattus norvegicus)
assayOverview: in vitro
conditionInfo: primary hepatocytes from Sham rats, probe metformin (100 μmol/L)
readoutType: inhibition at 1.5 min, 20 μmol/L
The reply should read as a number followed by its unit.

Problem: Look up inhibition at 1.5 min, 20 μmol/L: "NCCc1ccc(O)c(O)c1"
Solution: 58.7%

* * *

systemName: Oct1 (Rattus norvegicus, UniProt Q63089)
Sequence (Q63089 whole entry): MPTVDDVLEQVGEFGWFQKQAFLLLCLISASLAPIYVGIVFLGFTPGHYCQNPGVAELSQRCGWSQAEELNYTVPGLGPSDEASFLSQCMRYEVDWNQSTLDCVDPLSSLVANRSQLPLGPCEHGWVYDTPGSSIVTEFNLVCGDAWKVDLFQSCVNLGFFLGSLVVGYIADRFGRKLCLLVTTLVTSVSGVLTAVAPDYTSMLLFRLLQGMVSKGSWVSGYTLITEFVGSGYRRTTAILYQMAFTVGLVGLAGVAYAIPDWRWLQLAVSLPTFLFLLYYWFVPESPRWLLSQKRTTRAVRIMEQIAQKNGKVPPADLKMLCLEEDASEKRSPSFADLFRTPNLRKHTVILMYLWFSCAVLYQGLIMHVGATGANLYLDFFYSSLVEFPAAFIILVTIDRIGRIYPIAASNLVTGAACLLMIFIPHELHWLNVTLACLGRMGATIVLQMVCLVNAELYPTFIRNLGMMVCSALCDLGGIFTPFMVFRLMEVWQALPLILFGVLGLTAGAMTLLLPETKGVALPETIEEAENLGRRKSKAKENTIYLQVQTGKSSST
assayOverview: in vitro
conditionInfo: primary hepatocytes from BDL rats, probe metformin (100 μmol/L)
readoutType: inhibition at 1.5 min, 20 μmol/L (%)
Entry rule: numbers only, all in %.

Problem: Look up inhibition at 1.5 min, 20 μmol/L: NCCc1ccc(O)c(O)c1 [dopamine]
Solution: 25.2
